Data origin, for the record: PubChem BioAssay (NCI)

System: HCT-116 colon
Assay: NCI-60 one-dose screen, 48 h (100 = growth as untreated, 0 = no growth, -100 = all killed)
Conditions: 10 µM unless noted
The panel holds about 83,000 compounds, 20% with a hit somewhere; the sample as a whole holds those more often.
Assay readout: growth (%)

[[record]]
compound = "COc1cc(C2CC(C3C(=O)N(C)C(=O)N(C)C3=O)=NN2c2cc(Cl)cc(Cl)c2)cc(OC)c1OC (centres undefined)"
numeric_value = 87.3

[[record]]
compound = "CC[N+](CCCCCCCCCC[N+](CC)(c1ccccn1)c1ccccn1)(c1ccccn1)c1ccccn1"
numeric_value = 9.06

[[record]]
compound = "Oc1ccccc1/C=N/N1CCCCCC1"
numeric_value = 102

[[record]]
compound = "CCCCc1n(Cc2ccc3ccccc3c2)cc[n+]1Cc1ccc2ccccc2c1"
numeric_value = -97.2

[[record]]
compound = "COc1cc(/C=C/C(=O)c2c(C)n([O-])c3ccccc3[n+]2=O)cc(OC)c1OC"
numeric_value = 30.6

[[record]]
compound = "C(=C1c2ccccc2-c2ccccc21)c1ccncc1"
numeric_value = 16.4

[[record]]
compound = "CCOc1cc(/C=C/C(=O)C(C(=O)/C=C/c2ccc(OC(=O)CNc3nnc(C)s3)c(OCC)c2)C(=O)CNc2nnc(C)s2)ccc1OC(=O)CNc1nnc(C)s1"
numeric_value = -77.7

[[record]]
compound = "CCN(CC)CCNCC(=O)Oc1ccc(/C=C/C(=O)CC(=O)/C=C/c2ccc(OC(=O)CNCCN(CC)CC)c(OC)c2)cc1OC"
numeric_value = -9.15

[[record]]
compound = "Cc1cc(C)c(C(=O)c2cccs2)c(C)c1"
numeric_value = 101

[[record]]
compound = "COP(=O)(OC)C(c1ccc(O)cc1)(c1ccc(O)cc1)c1ccc(O)cc1"
numeric_value = 82.7

[[record]]
compound = "CCCCCCCSc1ncnc2[nH]ncc12"
numeric_value = 62.7

[[record]]
compound = "CCOC(CNCc1cc(C)c2[nH]c3ccccc3c2c1C)OCC"
numeric_value = 53.5

[[record]]
compound = "N#CSCC1CC(O)(c2ccccc2)C(c2ccccc2)C(c2ccc(Cl)cc2)O1 (centres undefined)"
numeric_value = -92.9

[[record]]
compound = "Cc1nn(-c2ccccc2)cc1/C=C1\\SC(N2CCCCC2)=NC1=O"
numeric_value = 46.7

